# System: Aspergillus flavus
# protocol-notes: Antifungal activity against Aspergillus flavus NCIM no. 524 after 3 to 4 days by serial plate dilution method
# Assay type: functional
# condition-parameters: Aspergillus flavus
reported-endpoint: MIC (µg/mL)
Write the value in µg/mL as a bare number.

Examples from the recorded data:
O=C(COc1ccc(Cl)cc1)N1N=C(c2ccc(Cl)cc2)CC1(O)c1cc(F)c(Cl)cc1Cl (stereo not drawn)    12.5
COc1ccc(C2=NN(C(=O)COc3ccc(Cl)cc3)C(O)(c3cc(F)c(Cl)cc3Cl)C2)cc1OC (stereo not drawn)    25
O=C(COc1ccc(Cl)cc1Cl)N1N=C(c2ccc(Cl)cc2Cl)CC1(O)c1cc(F)c(Cl)cc1Cl (stereo not drawn)    25
O=C(COc1ccc(Cl)cc1Cl)N1N=C(c2ccc(Cl)cc2)CC1(O)c1cc(F)c(Cl)cc1Cl (stereo not drawn)    25

input: GET /values?readout=MIC&system=Aspergillus flavus&item= Cc1ccc(OCC(=O)N2N=C(c3ccc(Cl)cc3Cl)CC2(O)c2cc(F)c(Cl)cc2Cl)cc1 (stereo not drawn)
output: 12.5

###

# System: Escherichia coli; also: test concentration or dose not given here
# protocol-notes: microbe, parasite or virus in culture
# Assay type: functional, ATCC 25922
// inhibition zone (IZ) lookup, one value per entry
Write the value in mm as a bare number.

COc1ccc(C2=NN(C(=O)COc3ccc(C)cc3)C(O)(c3cc(F)c(Cl)cc3Cl)C2)cc1OC (centres undefined)    16
O=C(COc1ccc(Cl)cc1)N1N=C(c2ccc(Cl)cc2)CC1(O)c1cc(F)c(Cl)cc1Cl (centres undefined)    18
COc1ccc(C2=NN(C(=O)COc3ccc(Cl)cc3)C(O)(c3cc(F)c(Cl)cc3Cl)C2)cc1 (centres undefined)    18

input: What value of measured inhibition zone (IZ) is listed for COc1ccc(C2=NN(C(=O)COc3ccc(Cl)cc3Cl)C(O)(c3cc(F)c(Cl)cc3Cl)C2)cc1 (centres undefined) ?
output: 16

###

# Tested on: Candida albicans
# protocol-notes: Antifungal activity against Candida albicans NCIM no. 300 after 3 to 4 days by serial plate dilution method
# Type: functional
reported-endpoint: inhibition zone (IZ) (mm)
Write the value in mm as a bare number.

COc1ccc(C2=NN(C(=O)COc3ccc(Cl)cc3Cl)C(O)(c3cc(F)c(Cl)cc3Cl)C2)cc1 (stereo not given)    12.5
COc1ccc(C2=NN(C(=O)COc3ccc(Cl)cc3)C(O)(c3cc(F)c(Cl)cc3Cl)C2)cc1 (stereo not given)    19
O=C(COc1ccc(Cl)cc1Cl)N1N=C(c2ccccc2)CC1(O)c1cc(F)c(Cl)cc1Cl (stereo not given)    10
COc1ccc(C2=NN(C(=O)COc3ccc(Cl)cc3)C(O)(c3cc(F)c(Cl)cc3Cl)C2)cc1OC (stereo not given)    10

input: What value of measured inhibition zone (IZ) is listed for Cc1ccc(OCC(=O)N2N=C(c3ccc(Cl)cc3)CC2(O)c2cc(F)c(Cl)cc2Cl)cc1 (stereo not given) ?
output: 19

###

// inhibition zone (IZ) lookup, one value per entry
# System: Candida albicans
# protocol-notes: Antifungal activity against Candida albicans NCIM no. 300 after 3 to 4 days by serial plate dilution method
# Assay type: functional

Cc1ccc(OCC(=O)N2N=C(c3ccc(Cl)cc3Cl)CC2(O)c2cc(F)c(Cl)cc2Cl)cc1 (centres undefined)    19 mm
O=C(COc1ccc(Cl)cc1)N1N=C(c2ccc(Cl)cc2)CC1(O)c1cc(F)c(Cl)cc1Cl (centres undefined)    20 mm
Cc1ccc(OCC(=O)N2N=C(c3ccccc3)CC2(O)c2cc(F)c(Cl)cc2Cl)cc1 (centres undefined)    15 mm

Moving on to the next molecule.
input: GET /values?readout=inhibition zone (IZ)&system=Candida albicans&item= OC(Cn1cncn1)(Cn1cncn1)c1ccc(F)cc1F
output: 20 mm

###

# System: Aspergillus fumigatus
# protocol-notes: Antifungal activity against Aspergillus fumigatus NCIM no. 902 after 3 to 4 days by serial plate dilution method; also: test concentration or dose not given here
# Format: functional
reported-endpoint: inhibition zone (IZ) (mm)
Write the value in mm as a bare number.

Examples from the recorded data:
COc1ccc(C2=NN(C(=O)COc3ccc(Cl)cc3)C(O)(c3cc(F)c(Cl)cc3Cl)C2)cc1 (stereo unspecified)    21
COc1ccc(C2=NN(C(=O)COc3ccc(C)cc3)C(O)(c3cc(F)c(Cl)cc3Cl)C2)cc1 (stereo unspecified)    12
O=C(COc1ccc(Cl)cc1Cl)N1N=C(c2ccccc2)CC1(O)c1cc(F)c(Cl)cc1Cl (stereo unspecified)    13
OC(Cn1cncn1)(Cn1cncn1)c1ccc(F)cc1F [FLUCONAZOLE]    22
O=C(COc1ccc(Cl)cc1)N1N=C(c2ccc(Cl)cc2)CC1(O)c1cc(F)c(Cl)cc1Cl (stereo unspecified)    18
Cc1ccc(OCC(=O)N2N=C(c3ccccc3)CC2(O)c2cc(F)c(Cl)cc2Cl)cc1 (stereo unspecified)    11
O=C(COc1ccc(Cl)cc1)N1N=C(c2ccccc2)CC1(O)c1cc(F)c(Cl)cc1Cl (stereo unspecified)    14
COc1ccc(C2=NN(C(=O)COc3ccc(Cl)cc3Cl)C(O)(c3cc(F)c(Cl)cc3Cl)C2)cc1OC (stereo unspecified)    14

input: What value of measured inhibition zone (IZ) is listed for Cc1ccc(OCC(=O)N2N=C(c3ccc(Cl)cc3Cl)CC2(O)c2cc(F)c(Cl)cc2Cl)cc1 (stereo unspecified) ?
output: 20

input: What value of measured inhibition zone (IZ) is listed for Cc1ccc(OCC(=O)N2N=C(c3ccc(Cl)cc3)CC2(O)c2cc(F)c(Cl)cc2Cl)cc1 (stereo unspecified) ?
output: 19

input: What value of measured inhibition zone (IZ) is listed for COc1ccc(C2=NN(C(=O)COc3ccc(Cl)cc3Cl)C(O)(c3cc(F)c(Cl)cc3Cl)C2)cc1 (stereo unspecified) ?
output: 19

###

# Test system: Talaromyces marneffei
# protocol-notes: Antifungal activity against Penicillium marneffei after 3 to 4 days by serial plate dilution method
# Type: functional
# condition-parameters: Talaromyces marneffei
reported-endpoint: MIC (µg/mL)
Write the value in µg/mL as a bare number.

Examples from the recorded data:
O=C(COc1ccc(Cl)cc1)N1N=C(c2ccccc2)CC1(O)c1cc(F)c(Cl)cc1Cl (stereo not drawn)    25
COc1ccc(C2=NN(C(=O)COc3ccc(Cl)cc3Cl)C(O)(c3cc(F)c(Cl)cc3Cl)C2)cc1OC (stereo not drawn)    25
Cc1ccc(OCC(=O)N2N=C(c3ccc(Cl)cc3Cl)CC2(O)c2cc(F)c(Cl)cc2Cl)cc1 (stereo not drawn)    6.25

Moving on to the next compound.
input: What value of measured MIC is listed for O=C(COc1ccc(Cl)cc1)N1N=C(c2ccc(Cl)cc2Cl)CC1(O)c1cc(F)c(Cl)cc1Cl (stereo not drawn) ?
output: 25

###

// MIC lookup, one value per entry
# Tested on: Aspergillus flavus
# protocol-notes: Antifungal activity against Aspergillus flavus NCIM no. 524 after 3 to 4 days by serial plate dilution method
# Assay type: functional
# condition-parameters: Aspergillus flavus

Examples from the recorded data:
O=C(COc1ccc(Cl)cc1)N1N=C(c2ccc(Cl)cc2Cl)CC1(O)c1cc(F)c(Cl)cc1Cl (stereo not drawn)    > 100 µg/mL
COc1ccc(C2=NN(C(=O)COc3ccc(Cl)cc3Cl)C(O)(c3cc(F)c(Cl)cc3Cl)C2)cc1OC (stereo not drawn)    > 100 µg/mL

Moving on to the next compound.
input: What value of measured MIC is listed for COc1ccc(C2=NN(C(=O)COc3ccc(C)cc3)C(O)(c3cc(F)c(Cl)cc3Cl)C2)cc1 (stereo not drawn) ?
output: > 100 µg/mL

Where do the numbers come from? From ChEMBL document CHEMBL1144479.
